Provide the recorded diameter of the inhibition zone (DIZ) for the entries that follow.
Tested on: Micrococcus luteus
PROCEDURE TEXT: Antimicrobial activity against Micrococcus luteus assessed as inhibition at 20 ug/6 mm disk after 1 to 2 days by agar diffusion assay
Type: functional
Give the quantity in mm, number only.

Task: For the molecule O=C(COC(=O)C#Cc1ccccc1)NCCC[Te]c1ccccc1 , what diameter of the inhibition zone (DIZ) is on record?
Result: 9

Task: For the molecule COc1ccc(N(CC(=O)NCCC[Te]c2ccccc2)C(=O)CCSC2=C(C)C(=O)c3ccccc3C2=O)cc1 , what diameter of the inhibition zone (DIZ) is on record?
Result: 8

Task: For the molecule COc1ccc(N(CC(=O)NCCC[Se]c2ccccc2)C(=O)/C=C/c2ccccc2)cc1 , what diameter of the inhibition zone (DIZ) is on record?
Result: 0

Task: For the molecule COc1ccc(N(CC(=O)NCCCSc2ccccc2)C(=O)CNC(=O)OC(C)(C)C)cc1 , what diameter of the inhibition zone (DIZ) is on record?
Result: 0

Task: For the molecule COc1ccc(N(CC(=O)NCCC[Se]c2ccccc2)C(=O)c2ccccc2)cc1 , what diameter of the inhibition zone (DIZ) is on record?
Result: 0
